target: BCL6 (Homo sapiens); construct: endogenous in cells; host or cells: T47D breast cancer epithelial cells; assay: Immunofluorescence protocol for high content imaging of BCL6 (degradation) in T47D cells, 3 days compound treatment; type: cell-based; settings: T47D cells, 3 days compound treatment, read-out: Mean DC50 (nM)* category
recorded-endpoint: DC50

CNC(=O)COc1cc2cc(Nc3nc(N4CCC(O[C@H]5C[C@H](N6CCN(c7ccc8c(n7)CN(C7CCC(=O)NC7=O)C8=O)[C@@H](C)C6)C5)CC4)ncc3Cl)ccc2n(C(C)C)c1=O (stereo partly shown) [Compound 192]; < 10 nM
CNC(=O)COc1cc2cc(Nc3nc(N4CCC5(CCN(CC6(F)CCN(c7c(F)ccc8c7C(=O)N(C7CCC(=O)NC7=O)C8)CC6)CC5)CC4)ncc3Cl)ccc2n(C(C)C)c1=O (stereo not shown) [Compound 152]; 10 to 50 nM
CNC(=O)COc1cc2cc(Nc3nc(N4CCC(CN5CC6(CCN(c7ccc8c(c7)CN(C7CCC(=O)NC7=O)C8=O)C6)CC5=O)CC4)ncc3Cl)ccc2n(C(C)C)c1=O (stereo not shown) [Compound 54]; < 10 nM
CNC(=O)COc1cc2cc(Nc3nc(N4CCN(CC5CCC6(CC5)CN(c5cc(OC)cc7c5C(=O)N(C5CCC(=O)NC5=O)C7=O)C6)CC4)ncc3Cl)ccc2n(C(C)C)c1=O (stereo not shown) [Compound 10]; 10 to 50 nM
CNC(=O)COc1cc2cc(Nc3nc(N4CCC(O[C@H]5C[C@H](N6C[C@@H](C)N(c7ccc8c(c7)CN(C7CCC(=O)NC7=O)C8=O)[C@@H](C)C6)C5)CC4)ncc3Cl)ccc2n(C(C)C)c1=O (stereo partly shown) [Compound 174]; < 10 nM
CNC(=O)COc1cc2cc(Nc3nc(N4CCC(O[C@H]5C[C@H](N6CCN(c7ccc8c(c7C)C(=O)N(C7CCC(=O)NC7=O)C8=O)[C@H](C)C6)C5)CC4)ncc3Cl)ccc2n(C(C)C)c1=O (stereo partly shown) [Compound 193]; < 10 nM
CNC(=O)COc1cc2cc(Nc3nc(N4CCC(CN5CC6(CCN(c7cc8c(c(OC)c7)C(=O)N(C7CCC(=O)NC7=O)C8)CC6)C5)CC4)ncc3Cl)ccc2n(C(C)C)c1=O (stereo not shown) [Compound 115]; < 10 nM
CNC(=O)COc1cc2cc(Nc3ncncc3Cl)ccc2n(CCOc2ccc3c(c2)C(=O)N(C2CCC(=O)NC2=O)C3=O)c1=O (stereo not shown) [Compound 146]; < 10 nM

Give DC50; test system BCL6 (Homo sapiens); compound CNC(=O)COc1cc2cc(Nc3nc(N4CCC(O[C@H]5C[C@H](N6CCC(c7ccc8c(c7C)CN(C7CCC(=O)NC7=O)C8=O)CC6)C5)CC4)ncc3Cl)ccc2n(C(C)C)c1=O (stereo partly shown) [Compound 197]
< 10 nM

Give DC50; test system BCL6 (Homo sapiens); compound CNC(=O)COc1cc2cc(Nc3nc(N4CCC(CN5CCC6(CC(=O)N(c7ccc8c(c7)CN(C7CCC(=O)NC7=O)C8=O)C6)C5)CC4)ncc3Cl)ccc2n(C(C)C)c1=O (stereo not shown) [Compound 39]
< 10 nM
